The following are reported IC50 results, target or system Epidermal growth factor receptor (Homo sapiens, UniProt P00533).
observed-property: IC50 (nM)

1) CN(C)Cc1ccc(-c2cc3ncnc(Nc4ccc(OCc5cccc(F)c5)c(Cl)c4)c3s2)[nH]1 : 4
2) CN(C)Cc1ccc(-c2cc3ncnc(Nc4ccc(OCc5cccc(F)c5)c(Cl)c4)c3s2)o1 : 2
3) CCNCc1ccc(-c2cc3ncnc(Nc4ccc(OCc5cccc(F)c5)c(Cl)c4)c3s2)[nH]1 : 6
4) Fc1cccc(COc2ccc(Nc3ncnc4sc(-c5cccs5)cc34)cc2Cl)c1 [GW684626B] : 9
5) Fc1cccc(COc2ccc(Nc3ncnc4cc(-c5cccs5)sc34)cc2Cl)c1 : 8
6) Fc1cccc(COc2ccc(Nc3ncnc4sc(-c5ccco5)cc34)cc2Cl)c1 [GSK-969786A] : 15
7) CN1CCN(Cc2ccc(-c3cc4ncnc(Nc5ccc(OCc6cccc(F)c6)c(Cl)c5)c4s3)o2)CC1 [GW784684X] : 5
8) Fc1cccc(COc2ccc(Nc3ncnc4sc(-c5ccc[nH]5)cc34)cc2Cl)c1 : 115
9) CS(=O)(=O)CCNCc1ccc(-c2cc3ncnc(Nc4ccc(OCc5cccc(F)c5)c(Cl)c4)c3s2)o1 : 1
10) CCNCc1ccc(-c2cc3c(Nc4ccc(OCc5cccc(F)c5)c(Cl)c4)ncnc3s2)[nH]1 : 121
11) CS(=O)(=O)CCNCc1cc(-c2cc3c(Nc4ccc(OCc5cccc(F)c5)c(Cl)c4)ncnc3s2)cs1 [GSK-300014A] : 304
12) CS(=O)(=O)CCNCc1cc(-c2cc3ncnc(Nc4ccc(OCc5cccc(F)c5)c(Cl)c4)c3s2)cs1 : 3
13) Fc1cccc(COc2ccc(Nc3ncnc4cc(-c5ccco5)sc34)cc2Cl)c1 : 10
14) CS(=O)(=O)CCNCc1ccc(-c2cc3c(Nc4ccc(OCc5cccc(F)c5)c(Cl)c4)ncnc3s2)s1 : 96

###

The following are reported IC50 results, target or system Receptor tyrosine-protein kinase erbB-2 (Homo sapiens, UniProt P04626).
observed-property: IC50 (nM)

1) Fc1cccc(COc2ccc(Nc3ncnc4sc(-c5ccc[nH]5)cc34)cc2Cl)c1 : 203
2) Fc1cccc(COc2ccc(Nc3ncnc4sc(-c5ccc(CNCc6ccccc6)o5)cc34)cc2Cl)c1 : 898
3) CN(C)Cc1ccc(-c2cc3ncnc(Nc4ccc(OCc5cccc(F)c5)c(Cl)c4)c3s2)[nH]1 : 76
4) Fc1cccc(COc2ccc(Nc3ncnc4cc(-c5ccc[nH]5)sc34)cc2Cl)c1 : 121
5) CN1CCN(Cc2ccc(-c3cc4ncnc(Nc5ccc(OCc6cccc(F)c6)c(Cl)c5)c4s3)o2)CC1 [GW784684X] : 250
6) Fc1cccc(COc2ccc(Nc3ncnc4cc(-c5ccco5)sc34)cc2Cl)c1 : 709
7) CS(=O)(=O)CCNCc1ccc(-c2cc3c(Nc4ccc(OCc5cccc(F)c5)c(Cl)c4)ncnc3s2)[nH]1 : 153
8) CS(=O)(=O)CCNCc1ccc(-c2cc3ncnc(Nc4ccc(OCc5cccc(F)c5)c(Cl)c4)c3s2)[nH]1 : 113
9) Fc1cccc(COc2ccc(Nc3ncnc4sc(-c5cccs5)cc34)cc2Cl)c1 [GW684626B] : 43
10) CCNCc1ccc(-c2cc3ncnc(Nc4ccc(OCc5cccc(F)c5)c(Cl)c4)c3s2)[nH]1 : 68
11) N#CCNCc1ccc(-c2cc3ncnc(Nc4ccc(OCc5cccc(F)c5)c(Cl)c4)c3s2)o1 : 68
12) Fc1cccc(COc2ccc(Nc3ncnc4cc(-c5cccs5)sc34)cc2Cl)c1 : 113
13) CS(=O)(=O)CCNCc1ccc(-c2cc3ncnc(Nc4ccc(OCc5cccc(F)c5)c(Cl)c4)c3s2)o1 : 71
14) CN(C)Cc1ccc(-c2cc3c(Nc4ccc(OCc5cccc(F)c5)c(Cl)c4)ncnc3s2)[nH]1 : 246
15) OCc1ccc(-c2cc3ncnc(Nc4ccc(OCc5cccc(F)c5)c(Cl)c4)c3s2)o1 : 122
16) CCNCc1ccc(-c2cc3c(Nc4ccc(OCc5cccc(F)c5)c(Cl)c4)ncnc3s2)[nH]1 : 111
17) CS(=O)(=O)CCNCc1cc(-c2cc3ncnc(Nc4ccc(OCc5cccc(F)c5)c(Cl)c4)c3s2)cs1 : 31
18) CN(C)Cc1ccc(-c2cc3ncnc(Nc4ccc(OCc5cccc(F)c5)c(Cl)c4)c3s2)o1 : 146
19) CS(=O)(=O)CCNCc1cc(-c2cc3c(Nc4ccc(OCc5cccc(F)c5)c(Cl)c4)ncnc3s2)cs1 [GSK-300014A] : 299
20) Fc1cccc(COc2ccc(Nc3ncnc4sc(-c5ccco5)cc34)cc2Cl)c1 [GSK-969786A] : 14
21) CS(=O)(=O)CCNCc1ccc(-c2cc3c(Nc4ccc(OCc5cccc(F)c5)c(Cl)c4)ncnc3s2)s1 : 95
22) CS(=O)(=O)CCNCc1ccc(-c2cc3c(Nc4ccc(OCc5cccc(F)c5)c(Cl)c4)ncnc3s2)o1 : 6

###

- Tested on: BT-474
- assay-explanation: Antiproliferative activity against human BT474 cells expressing ErbB2 by MEB assay
Recorded measurements of IC50, one per entry
observed-property: IC50 (nM)

1. Fc1cccc(COc2ccc(Nc3ncnc4sc(-c5ccc[nH]5)cc34)cc2Cl)c1 : 1980
2. Fc1cccc(COc2ccc(Nc3ncnc4cc(-c5ccc[nH]5)sc34)cc2Cl)c1 : 540
3. CS(=O)(=O)CCNCc1ccc(-c2ccc3ncnc(Nc4ccc(OCc5cccc(F)c5)c(Cl)c4)c3c2)o1 [LAPATINIB DITOSYLATE] : 100
4. CS(=O)(=O)CCNCc1cc(-c2cc3ncnc(Nc4ccc(OCc5cccc(F)c5)c(Cl)c4)c3s2)cs1 : 600
5. OCc1ccc(-c2cc3ncnc(Nc4ccc(OCc5cccc(F)c5)c(Cl)c4)c3s2)o1 : 720
6. CS(=O)(=O)CCNCc1cc(-c2cc3ncnc(Nc4ccc(OCc5cccc(F)c5)c(Cl)c4)c3s2)co1 : 730

###

Recorded measurements of IC50, one per entry
- Tested on: HFF
- assay-explanation: Antiproliferative activity against HFF after 72 hrs by CTG assay
- condition-notes: Homo sapiens
observed-property: IC50

1) Fc1cccc(COc2ccc(Nc3ncnc4cc(-c5ccco5)sc34)cc2Cl)c1 : > 30 µM
2) Fc1cccc(COc2ccc(Nc3ncnc4sc(-c5ccco5)cc34)cc2Cl)c1 [GSK-969786A] : > 30 µM
3) CS(=O)(=O)CCNCc1ccc(-c2cc3ncnc(Nc4ccc(OCc5cccc(F)c5)c(Cl)c4)c3s2)o1 : > 30 µM

The measured values listed here are drawn from ChEMBL document CHEMBL1143296.
